# systemName: Fuc(a1-2)[Gal(a1-3)]Gal
# protocolSummary: glycan array binding signal (z-score within array); higher = stronger binding
# conditionParameters: glycan notation: IUPAC condensed, linker removed
Shown is part of a subset that was picked to be rich in the strongest signals.
measuredQuantity: glycan array binding signal (z-score)

Provide glycan array binding signal (z-score) value for the following binder: LSectin (Mus musculus), Q8BNX1 (protein) MNTGEYNKLGSAIEEVSRGQLGRWECYKQRLFFLVLALLVATVLWALILSTLLSSASSKLRVLLSHQDLLRTNASEQKMTLSSLKDDIGACRNCCSVTKAQLQTTLAEFKDIQAKLMEQESILKELQERVTQDLAKASRDRENIRSELFQALEAVKRQNSSCEQCPPSWLPFQGSCYYFSETQATWDTAQSYCGGQGAHLVIVRGLNEQGFLSQHTRGRGYWLGLRAVRHLNKIQGYRWVDGASLNFSHWNSGEPNDSRGHEDCIMMLHSGLWNDAPCTNERDGWICEKRSSCY
-0.145
